# System: HCT-116
# Test description: NCI tumour cell line growth inhibition, 48 h
Calls of active or inactive are those of the source. Cut-off read from the data, not from the text of the source: active = GI50 up to about 1.1 µM and inactive = higher.
Outcome field: choose from Y (active), N (inactive)

# count of solved cases: 2
{"Molecule": "COc1cc2c(c(OC)c1)/C(=C/Sc1ccccc1)C(=O)N(C(C)(C)C)C2", "Category": "N"}
{"Molecule": "COc1ccc2c(c1)CCc1c-2[nH]c2ccc(OC)cc12", "Category": "N"}

(Q) Tell me the assay call for "COC(=O)c1c(CC(=O)OC(C)C)cc2n(c1=O)Cc1c-2nc2ccccc2c1OC" please.
(A) N

(Q) What classification did CC12Oc3ccc4ccccc4c3C1c1c(ccc3ccccc13)O2 (centres undefined) end up with in this test?
(A) N

(Q) Which outcome was assigned to COc1cc(C2c3cc4c(cc3[C@@H](Nc3ccc(F)cc3)C3COC(=O)[C@H]23)OCO4)cc(OC)c1O (some centres undefined) in this test?
(A) N

(Q) How did this test come out for "Cc1cc(C)nc(NS(=O)(=O)c2ccc(Nc3c4ccc(Cl)cc4nc4c(C(=O)Nc5ccc(S(=O)(=O)N=C(N)N)cc5)cccc34)cc2)n1" ?
(A) N

(Q) Status in this test for Cc1c(CNc2ccc(C(=O)NC(CC(=O)O)C(=O)O)cc2)ccc2nc(N)nc(N)c12 (centres undefined) ?
(A) Y

(Q) Each molecule tested received a call. Report the one for CC(C)(C)C(=O)C(C(c1ccccc1)N1CCOCC1)N1CCOCC1 (centres undefined) .
(A) N

(Q) # outcome recorded in this test, key = "Cc1cccc(C)c1NC(=O)CCc1nnc(S)[nH]1"
(A) N

----------
# Tested on: RXF 393
# Test description: NCI tumour cell line growth inhibition, 48 h
The source made the active and inactive calls. Cut-off read from the data, not from the text of the source: active = GI50 up to about 1.1 µM and inactive = higher. Square brackets hold non-standard residues; d marks the D form. Peptide text beside a SMILES is read from it. Ac5c = NC1(C(=O)O)CCCC1
Endpoint name: GI50

# annotated cases, reported GI50 shown
{"Molecule": "CC1(C)C2CC3C4CC5(Nc6ccccc6C5N41)[C@]3(C)CC2=O (stereo partly drawn)", "GI50": "> 50 µM (inactive)"}
{"Molecule": "COC(=O)C1(O)C(c2ccccc2)=NC2(C)CCCC21 (stereo not drawn)", "GI50": "> 100 µM (inactive)"}

Let's switch to this molecule now.
(Q) Notebook: pull reported GI50 for RXF 393, entry NCC(=O)NC1(C(=O)O)CCCC1 (H-Gly-[Ac5c]-OH)
(A) > 100 µM (inactive)

----------
# Test system: SK-MEL-28
# Test description: NCI tumour cell line growth inhibition, 48 h
Activity calls are given as the source filed them. Cut-off read from the data, not from the text of the source: active = GI50 up to about 1.1 µM and inactive = higher.
Overview of recorded GI50 for various compounds

{"Compound": "CCOP(=O)(C/C=C/Cn1nc(Br)c(=O)[nH]c1=O)OCC", "GI50": "> 100 µM (inactive)"}

(Q) # GI50 lookup, item "CC(C)/C(Cl)=N/OC(=O)Nc1ccc(OC(F)(F)F)cc1"
(A) 13.3 µM (inactive)

----------
# Tested on: SF-539
# Test description: NCI tumour cell line growth inhibition, 48 h
Calls of active or inactive are those of the source. Rule as the data show it: active = GI50 up to about 1.1 µM and inactive = higher.
Endpoint name: GI50

Recorded GI50, per entry:
{"Compound": "CC1=C(C#N)c2nc3ccccc3n2C(=O)C1(C)CCO (stereo unspecified)", "Result": "> 100 µM (inactive)"}
{"Compound": "CCO/C(CCn1[nH]c(=O)c(Cl)c(Cl)c1=O)=N\\NC(=O)C(=O)NN", "Result": "> 100 µM (inactive)"}
{"Compound": "Clc1ccc(Cc2nc3cc(Cl)c(Cl)cc3n2CC2CCCN3CCCCC23)cc1 (stereo unspecified)", "Result": "10.4 µM (inactive)"}
{"Compound": "CC/C(=N\\NC(=O)c1cccnc1)c1ccc2c(c1)OCCO2", "Result": "> 100 µM (inactive)"}
{"Compound": "CN(C)C1COC2Cc3ccccc3C1O2 (stereo unspecified)", "Result": "> 100 µM (inactive)"}
{"Compound": "COc1ccc2nc3cc(Cl)ccc3c(Sc3ccc([N+](=O)[O-])cc3)c2c1", "Result": "> 10 µM (inactive)"}
{"Compound": "[O-]/[N+](=N/c1ncc(-c2ccccc2)cn1)c1ncc(-c2ccccc2)cn1", "Result": "> 65.2 µM (inactive)"}
{"Compound": "CC(C(=O)O)c1ccc(-c2ccccc2)c(F)c1 (stereo unspecified) [TARENFLURBIL]", "Result": "> 100 µM (inactive)"}
{"Compound": "CC[C@@]12CCC(=S)N(CCSc3ccccc3)[C@@H]1c1c(n(S(=O)(=O)c3ccc(OC)cc3)c3ccccc13)CC2", "Result": "88.1 µM (inactive)"}
{"Compound": "Sc1nnc(C(c2ccccc2)c2ccccc2)[nH]1", "Result": "> 100 µM (inactive)"}

// next item, GI50 requested
(Q) Under SF-539: GI50 value of "Nc1ccc(-c2nc3ccccc3s2)cc1" ?
(A) 23 µM (inactive)

----------
# Test system: PC-3
# Test description: NCI tumour cell line growth inhibition, 48 h
The source made the active and inactive calls. No stated cut-off is given here; in the data, active = GI50 up to about 1.1 µM and inactive = higher.
Please state which outcome applies, choosing from true for active, false for inactive

{"Compound": "N=C1NC(c2ccc(Cl)cc2)=CC(c2cccc(Cl)c2)S1 (stereo unspecified)", "Target entity": "PC-3", "Category": "false"}
{"Compound": "N/C(=N/O)c1cn(C2OC(CO)C(O)C2O)c2ncnc(NO)c12 (stereo unspecified)", "Target entity": "PC-3", "Category": "true"}

(Q) Outcome? "C(=N\c1ccc(-c2nc3ccccc3[nH]2)cc1)/c1cccs1"
(A) false

(Q) Short answer needed: outcome of this test for CCCCCC(/C=C/[C@@H]1CC(=O)C[C@H]1O[Si](C)(C)C(C)(C)C)OCOCCOC (stereo partly specified) ?
(A) false

(Q) Hey, what did the test say about C=CCN1C(=O)/C(=C/c2ccco2)N=C1SC1OC(COC(C)=O)C(OC(C)=O)C(OC(C)=O)C1OC(C)=O (stereo unspecified) ?
(A) false

(Q) Please share the test call associated with "Cc1nc2cc(/N=N/c3c(C)noc3C)ccc2[nH]1" .
(A) false

(Q) What did this assay record as the result for "Cc1ccc2c(C(=O)c3c(C)n(CCN4CCOCC4)c4ccccc34)cccc2c1" ?
(A) false

(Q) Per the records of this test, what outcome belongs to "CN1CN(c2ccccc2)C2(CCN(Cc3nc4ccccc4s3)CC2)C1=O" ?
(A) false

(Q) Hello, I am checking results. What call was entered for O=C1NC(Cc2ccc(O)cc2)C(=O)NC1Cc1ccc(O)cc1 (stereo unspecified) ?
(A) false

(Q) In this assay, the call recorded for "CCOC(=O)c1nc2ccc(C(F)(F)F)cc2nc1Oc1ccc(C(=O)OC)cc1" was what?
(A) false

(Q) Field: outcome | Entry: "Cc1ccc2occ/c(=N\Nc3ccccc3)c2c1"
(A) false

----------
Recorded GI50 for the following molecules
# Tested on: SF-295
# Test description: NCI tumour cell line growth inhibition, 48 h
Active and inactive are the calls of the source. Cut-off read from the data, not from the text of the source: active = GI50 up to about 1.1 µM and inactive = higher.

{"Molecule": "CCCCCCCCOCC(O)COC(=O)CCCCCCC (stereo not drawn)", "GI50": "> 100 µM (inactive)"}
{"Molecule": "O=C(c1ccccc1O)c1cc(-c2ncc3c(=O)c4ccccc4oc3n2)c(-c2ccccc2O)[nH]c1=O", "GI50": "11.4 µM (inactive)"}
{"Molecule": "Cc1ccc(Nc2ncnc3sc(SCc4ccccc4)nc23)cc1", "GI50": "74.8 µM (inactive)"}
{"Molecule": "O=c1oc2ccc3ccccc3c2cc1-c1nnc(-c2ccc([N+](=O)[O-])cc2)[nH]1", "GI50": "36.6 µM (inactive)"}
{"Molecule": "COC(=O)C1=C(C(=O)OC)SC2(S1)C1=C(CCC1)SC(C(=O)OC)=C2C(=O)OC", "GI50": "15.6 µM (inactive)"}

(Q) Recorded GI50 for NC(CO)C(=O)NCC(=O)O (stereo not drawn) , please?
(A) > 100 µM (inactive)

(Q) Find the recorded GI50 belonging to "O=C(Cn1ccnc1[N+](=O)[O-])N(CCO)CCO" and report it.
(A) > 250 µM (inactive)

(Q) Can you share its GI50? I mean this molecule: "N#Cc1c(N)[nH]c(=S)c(C#N)c1-c1cccc(Cl)c1"
(A) 34.9 µM (inactive)

----------
# System: 786-0
# Test description: NCI tumour cell line growth inhibition, 48 h
Calls of active or inactive are those of the source. Rule as the data show it: active = GI50 up to about 1.1 µM and inactive = higher.
The reply should name one outcome from Yes = active, No = inactive

Solved cases (2 shown):
{"Molecule": "CCOP(=O)(C=C=C(C)C)OCC", "Category": "No"}
{"Molecule": "NC(=O)/C=C/c1c[nH]c2nccnc12", "Category": "No"}

(Q) Status in this test for "Cc1ccc2occ/c(=N\Nc3ccccc3)c2c1" ?
(A) No

(Q) What is the recorded call for this molecule in the test? "Nc1ccc(N)c2c1C(=O)c1ccccc1C2=O"
(A) No

(Q) Could you kindly confirm the outcome this assay logged for O=S(=O)(c1ccccc1)C1(C2(S(=O)(=O)c3ccccc3)CCN=N2)CCN=N1 (centres undefined) ?
(A) No

(Q) Could you kindly confirm the outcome this assay logged for COc1ccc2ccccc2c1C1NC(=O)c2ccccc2N1 (centres undefined) ?
(A) No

(Q) Outcome logged for "CCOC(=O)/C(=C/c1ccc(C(F)(F)F)cc1)N(CC)CC" in this assay:
(A) No

(Q) Called result for CN1CCCOC(c2ccc([N+](=O)[O-])cc2)O1 (centres undefined)
(A) No

(Q) Give the logged outcome of this assay for the following molecule: CC(=O)c1ccc(OCC(O)CO)cc1 (centres undefined)
(A) No

(Q) How was C/C(=N\O)C1CC2C=C(C#N)C1N(Cc1ccccc1)C2 (centres undefined) classified in this test?
(A) No

(Q) Query: recorded result category for "COC(=O)c1ccc(NCc2cc(O)ccc2O)cc1O" in this test
(A) No

(Q) What classification did COC(=O)C1CC2CC1C1C2SC(F)(F)C1(F)F (centres undefined) end up with in this test?
(A) No

(Q) Can you look up the reported call for CC1C=CN(N(C)C)C2=C1C(=O)c1cnccc1C2=O (centres undefined) for me?
(A) Yes

(Q) Name the outcome recorded for "O=Nn1c2ccccc2c2ccccc21" in the assay.
(A) No

(Q) Check the results log: what was the call for "O=C(NCCc1ccccc1)[C@H]1CCCC[C@@H]1CCO" ?
(A) No

(Q) So what was the verdict on "Cc1cccc(C)c1NC(=O)CCc1nnc(S)[nH]1" in this test?
(A) No

(Q) Please indicate how the test categorized "N=c1nc2n(cc1F)[C@@H]1O[C@H](CO)[C@@H](O)[C@@H]1O2" .
(A) No

(Q) Just curious, what result did CCOc1cc(C2SCC(=O)N2c2nc3cc4sc(N5C(=O)CSC5c5ccc(O)c(OCC)c5)nc4cc3s2)ccc1O (centres undefined) get here?
(A) No

(Q) What outcome does the record of this test show for CCCCCCCCOCC(O)COC(=O)CCCCCCC (centres undefined) ?
(A) No

(Q) Please let me know the test result on file for "[N-]=[N+]=N[C@H]1C[C@@H](CO)O[C@H]1n1cnc2c(N)ncnc21" .
(A) No

(Q) Entry "CC[C@@H]1CC[C@@H]2[C@H](CC[C@]3(C)[C@@H](OC(C)=O)CC[C@@H]23)[C@H]1COC(C)=O" : call = ?
(A) No

(Q) Call for entry Clc1ccc(Cc2nc3cc(Cl)c(Cl)cc3n2CC2CCCN3CCCCC23)cc1 (centres undefined) :
(A) No

(Q) Lab log entry: CC1CN(c2ccc(Cl)cc2)CC(C)(C)OC(=O)O1 (centres undefined) — outcome as called in the assay?
(A) No

(Q) // outcome(item) with item = "O=c1oc2ccc3ccccc3c2cc1-c1nnc(-c2ccc([N+](=O)[O-])cc2)[nH]1"
(A) No
